# system: MAGI2_6, Q86UL8
# Sequence (Q86UL8 1141-1229): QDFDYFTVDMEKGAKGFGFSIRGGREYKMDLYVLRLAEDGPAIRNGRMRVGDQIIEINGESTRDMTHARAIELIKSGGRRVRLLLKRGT
# assay-remarks: holdup assay
# Design: key: below the threshold = too weak to quantify, mostly under pKd 3.1 to 4
# details: plain residues with an end cap or a label only (N-terminal biotin on a linker: ahx)
readout-kind: pKd

Worked cases, answers included:
| binder | pKd |
| --- | --- |
| QNTDDVQTSF [ACE2, Q9BYF1] | below the threshold |
| QDEKVKESYV [ABCA1, O95477] | 4.53 |
| TESNLQTSSC [CGN, Q9P2M7] | below the threshold |
| TQKFRASTAL [FRMPD1, Q5SYB0] | below the threshold |

For the next question, use this binder.
Incoming: Please look up its pKd: EKQAKGDTEF [CACYBP, Q9HB71]
Outgoing: below the threshold
